B1: glmS ribozyme (parent)
chain: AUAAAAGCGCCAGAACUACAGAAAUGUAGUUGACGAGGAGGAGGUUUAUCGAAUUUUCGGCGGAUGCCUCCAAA

Variants of: B1
EXPERIMENT NOTES: self-cleavage kobs at 10000 uM GlcN6P; higher = faster cleavage; RNA array
TEST CONTEXT: with glucosamine-6-phosphate
This sample holds only a part of the variants without activity.
PROPERTY NAME: self-cleavage kobs at 10000 uM GlcN6P (s⁻¹)
// return numeric value only (unit: s⁻¹, not printed)

See these solved cases before continuing.
ITEM SEQUENCE	self-cleavage kobs at 10000 uM GlcN6P (s⁻¹)
AUAAAAGCGCCAGUACUACAGAAAUGUAGUUGACGAGGAGGAGGUUUAUCGAAUUUUCGGCGGACGCCUCCAAA [A14U U65C]	7.83e-05
AUAAAAGCGCCAGAACUACAGAAAUGUAGUAGACGAGGAGGAGGUUUAUCGAAUUCUCGGCGGAUGCCUCCAAA [U31A U56C]	0.00299
AUAAAAGCGCCAGAACUACAGAAAUGUAGUUGACGAGUAGGAGGUUUAUCGAAUUUUCGGCGGAUGCCGCCAAA [G38U U69G]	4.47e-05
AUAAAAGCGCCAGAACUACAGAAAUGUAAUUGACGAGGAGGAGGUUUAUCGAGUUUUCGGCGGAUGCCUCCAAA [G29A A53G]	0.00483
AUAAAAGCGCCAGAAAUACAGAAAUGUAGUUGACGAGGAGGAGGUUGAUCGAAUUUUCGGCGGAUGCCUCCAAA [C16A U47G]	0.000186
AUAAAAGCGCCAGAACUACAGAAAUGUAGUUGACGAGGAGGAGGUUUUUCGAAUCUUCGGCGGAUGCCUCCAAA [A48U U55C]	0.000378

Here is the next item to consider.
What self-cleavage kobs at 10000 uM GlcN6P value was documented for this variant, AUAAAAGCGCCAGAAUUACAGAAAUGUAGUUGACGAGGAGGAGGUUGAUCGAAUUUUCGGCGGAUGCCUCCAAA [C16U U47G] ?
0.00951
